I'd appreciate it if you could supply pKi values for the items below.
Biological target: Adenosine A2a receptor (Homo sapiens)
Construct: expressed in transfected cells; host or cells: CHO cell membranes
Sequence (P29274 whole entry): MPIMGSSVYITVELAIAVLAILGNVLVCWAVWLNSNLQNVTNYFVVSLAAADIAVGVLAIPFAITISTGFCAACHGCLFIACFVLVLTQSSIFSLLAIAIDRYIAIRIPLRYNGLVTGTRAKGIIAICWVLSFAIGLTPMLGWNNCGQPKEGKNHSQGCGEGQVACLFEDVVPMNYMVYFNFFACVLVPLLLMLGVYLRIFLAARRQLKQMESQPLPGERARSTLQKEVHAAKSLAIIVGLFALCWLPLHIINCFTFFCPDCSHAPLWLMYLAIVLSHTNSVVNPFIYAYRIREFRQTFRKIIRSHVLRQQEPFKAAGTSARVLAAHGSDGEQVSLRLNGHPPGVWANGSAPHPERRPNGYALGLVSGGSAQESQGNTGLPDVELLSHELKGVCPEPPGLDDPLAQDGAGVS
Assay: Adenosine receptor TR-FRET binding assay, A2a
Details: Table 8; displacement of 100 nM CA200645, CHO cell membranes, Cheng and Prusoff
Please keep in mind that pKi is minus log10 of the molar concentration; only the number is needed.

Lab book: pKi of Cc1ccc(CNC(=O)c2cnc(-c3ccco3)nc2N)cc1 [Example 11.1] noted as 7.51

Lab book: pKi of Nc1nc(-c2cccc(F)c2)ncc1C(=O)NCc1cccc(C(F)(F)F)c1 [Example 10.11] noted as 6.01

Lab book: pKi of Cc1cccnc1CNC(=O)c1cnc(-c2ccc(F)cc2)nc1N [Example 14] noted as 6.13

Lab book: pKi of Nc1nc(-c2cccc(F)c2)ncc1C(=O)NCc1ncccc1Cl [Example 10.12] noted as 7.44

Lab book: pKi of Nc1nc(-c2ccco2)ncc1C(=O)NCc1cccc(Cl)c1 [Example 5.12] noted as 8.39

Lab book: pKi of COc1ccccc1CNC(=O)c1cnc(-c2ccco2)nc1N [Example 5.20] noted as 8.96

Lab book: pKi of Nc1nc(-c2ccco2)ncc1C(=O)NCc1cccc(C(F)(F)F)c1 [Example 5.29] noted as 7.28

Lab book: pKi of Nc1nc(-c2cccc(F)c2)ncc1C(=O)NCc1c(Cl)cccc1Cl [Example 10.6] noted as 7.49

Lab book: pKi of Nc1nc(-c2ccco2)ncc1C(=O)NCc1cccc(F)c1 [Example 5.13] noted as 7.70

Lab book: pKi of Nc1nc(-c2cccc(F)c2)ncc1C(=O)NCCc1ccccc1 [Example 4.1] noted as 6.85

Lab book: pKi of Cc1cccnc1CNC(=O)c1c(N)nc(-c2ccco2)nc1Cl [Example 13] noted as 7.70

Lab book: pKi of COc1cc(CNC(=O)c2cnc(-c3cccc(F)c3)nc2N)cc(OC)c1 [Example 10.9] noted as 6.18

Lab book: pKi of CC(C)n1ncnc1CNC(=O)c1cnc(-c2ccco2)nc1N [Example 5.27] noted as 7.77

Lab book: pKi of Cc1cccnc1CNC(=O)c1nnc(-c2ccc(F)cc2)nc1N [Example 8] noted as 7.29

Lab book: pKi of CC(C)n1ncnc1CNC(=O)c1cnc(-c2cccc(F)c2)nc1N [Example 10.15] noted as 7.47

Lab book: pKi of Cc1cccnc1CNC(=O)c1cnc(-c2cccc(C#N)c2)nc1N [Example 12] noted as 7.57

Lab book: pKi of Nc1nc(-c2cccc(F)c2)ncc1C(=O)NCc1ncccn1 [Example 5.5] noted as 6.56

Lab book: pKi of CN(Cc1ccccc1)C(=O)c1cnc(-c2ccco2)nc1N [Example 5.22] noted as 6.06

Lab book: pKi of Nc1nc(-c2cccc(F)c2)ncc1C(=O)NCc1ccccc1Cl [Example 10.5] noted as 6.86
